B1: library; a variant is named by its letters at N, in order (parent)
chain: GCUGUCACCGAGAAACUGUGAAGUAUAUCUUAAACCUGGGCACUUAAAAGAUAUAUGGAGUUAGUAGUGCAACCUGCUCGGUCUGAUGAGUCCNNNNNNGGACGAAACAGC

Variants of: B1
Assay: normalized RNA/DNA level without ligand (relative to sTRSVctl = 100) (log10 (% of sTRSVctl)); HEK293T; ligand: cyclic di-GMP (c-di-GMP-II aptamer); higher = less ribozyme self-cleavage, higher mRNA level
Conditions: reporter: mCherry (pCS4076), ligand present: no
Reported normalized RNA/DNA level without ligand (log10) is given for each of the following variants.
Reply briefly: the number, and no unit.

mutation: UCAGGU
reported value: 1.58
--
mutation: CUCCGA
reported value: 1.69
--
mutation: UUCACU
reported value: 1.73
--
mutation: CCACUA
reported value: 1.43
--
mutation: CCUUGA
reported value: 1.63
--
mutation: CUACAU
reported value: 1.57
--
mutation: GACAAA
reported value: 1.47
--
mutation: AUAGAA
reported value: 1.39
--
mutation: UCAUGC
reported value: 1.71
--
mutation: UGGGGG
reported value: 1.79

Form field normalized RNA/DNA level without ligand (log10), entry UAACCG : 1.72

Form field normalized RNA/DNA level without ligand (log10), entry GAUUAU : 1.62
